- assay system: proteasome subunit β5 (beta5) (Homo sapiens, UniProt P28074)
- Construct: Lysate from the human acute lymphoblastic leukemia cell line, MOLT-4; endogenous in cells; host or cells: MOLT-4
- test details: Proteasome active-site ELISA (ProCISE), beta5, MOLT-4 lysate
- Format: biochemical
- condition info: MOLT4 lysate, human, 1 h continuous treatment, 25° C.
pIC50: −log10 of the molar value.
measured attribute: pIC50

a = C[C@H](NC(=O)CN1CCOCC1)C(=O)N[C@@H](Cc1ccc2occc2c1)C(=O)N[C@@H](CC1CCCC1)C(=O)[C@@]1(C)CO1
b = C[C@]1(C(=O)[C@H](CC2=CCCCC2)NC(=O)[C@H](Cc2ccc(S(C)(=O)=O)cc2)NC(=O)[C@H](CO)NC(=O)CN2CCOCC2)CO1
c = COc1ccc(C[C@H](NC(=O)[C@H](C)NC(=O)[C@H]2CCCO2)C(=O)N[C@@H](Cc2ccccc2)C(=O)[C@@]2(C)CO2)cc1
Kindly provide a descending ordering of the above compounds based on their pIC50. Put the labels in the order asked and list them.
c, a, b
